Read-out: Interleukin-1 alpha (IL1a), IL1A (gene 3552)
Experiment: BSK_LPS_IL1a: BioMAP Diversity Plus: LPS Assay for Interleukin-1 alpha (IL1a) Biomarker Activity (AID 2283080)
Settings: primary human HUVEC with PBMC; actives raise or lower the signal
Protocol: BSK_LPS is a cell-based, multiplexed-readout assay that uses umbilical vein endothelium and peripheral blood mononuclear cells, a human vascular primary cell co-culture, with measurements taken at 24 hours after chemical dosing in a 96-well plate.BSK_LPS_IL1a is an assay component measured in the BSK_LPS assay. It measures IL-a antibody related to regulation of gene expression using ELISA technology.Data from the assay component BSK_LPS_IL1a was analyzed into 1 assay endpoint. […]
Calls of active or inactive are those of the source. The calls were made as follows: active = hit-call score of the fitted dose curve at least 0.9, where 1 is the maximum; inactive = score below 0.9.
ASSAY_ENDPOINT: AC50

c1ccc(C[n+]2cccc3ccccc32)cc1 : inactive
CO[C@H]1/C=C/O[C@@]2(C)Oc3c(C)c(O)c4c(O)c(c(/C=N/N5CCN(C)CC5)c(O)c4c3C2=O)NC(=O)/C(C)=C\C=C\[C@H](C)[C@H](O)[C@@H](C)[C@@H](O)[C@@H](C)[C@H](OC(C)=O)[C@@H]1C : inactive
CCCCOC(=O)CC(CC(=O)OCCCC)(OC(C)=O)C(=O)OCCCC : inactive
CN1C(=O)N(c2ccccc2Br)Cc2cnc(Nc3ccc4c(c3)OCC(CO)O4)nc21 (stereo not given) : 9.1 µM (active)
COc1ccc2cc(S(=O)(=O)N[C@H](CC(=O)N[C@H](Cc3ccc(CN4[C@H](C)CCC[C@@H]4C)cc3)C(=O)N(C)C(C)C)c3ccc4c(c3)OCO4)ccc2c1 : 14.5 µM (active)
CCN(CC)C(=O)c1cc(S(=O)(=O)Cc2ccccc2)c(N2CCC(c3ccccc3)CC2)cc1N(CC)CCN(C)C : 8.53 µM (active)
CCCCCCCC[Si](OCC)(OCC)OCC : inactive
CCO[Si](CCCNC(N)=O)(OCC)OCC : inactive

# AC50 lookup, item `CC(C)(C)c1csc(-c2cc3cc(OCc4ccccc4CC(=O)O)ccc3o2)n1` 20.5 µM (active)

Could you share which AC50 value was measured for `Oc1ccccc1` ? inactive

Sample `CCCCCCCCCCCO` — what was its AC50? inactive

Report AC50 for `Clc1cc(Cl)c2c(c1)N=C1CCCCCN1C2` please. inactive

Item `CN(C)c1ccc(C(=C2C=CC(=[N+](C)C)C=C2)c2ccc(N(C)C)cc2)cc1` has what recorded AC50? 0.147 µM (active)

Would you mind telling me what AC50 value was observed for `Oc1ccc2ccccc2c1` ? inactive

Please look up its AC50: `O=C(O)Cn1c(=O)n(Cc2ccc(Br)cc2F)c(=O)c2ccc(Cl)cc21` inactive

Look at this compound and give its reported AC50. `Cc1ccc(C(C)C)cc1` inactive

Consider the compound shown here: `CCCC(=O)OCCC(C)C` What is its recorded AC50? inactive

Please look up its AC50: `C[C@]12CC[C@@H]3c4ccc(O)cc4CC[C@H]3[C@@H]1CC[C@H]2O` inactive

Item under review: CC(O)CC(C)(C)O (stereo not given) . Reported AC50? inactive

Quick one: AC50 of COCC(C)OCC(C)OCC(C)O (stereo not given) ? inactive

----------
Read-out: Bcl-2 (BID) gene, BID (gene 637)
Test: LTEA_HepaRG_BID: Life Technologies and Expression Analysis (LTEA) Assay for Bcl-2 (BID) gene using HepaRG (AID 2283476)
Details: mRNA level, 48 h; actives raise or lower the signal
Experimental: LTEA_HepaRG is a cell based, multiplexed-readout assay that uses HepaRG, a human liver cell line, with measurements taken at 48 hours after chemical dosing on a 96-well plate.LTEA_HepaRG_BID is one of 102 assay component(s) measured in the LTEA HepaRG cell culture assay. It is a marker of Cell proliferation, survival, death.Data from the assay component LTEA_HepaRG_BID was analyzed into 1 endpoint. […]
Active and inactive are the calls of the source. How the source made its calls: active means hit-call score of the fitted dose curve at least 0.9, where 1 is the maximum; inactive means score below 0.9.
Respond using exactly one of the listed classes: YES for active, NO for inactive

COc1ccc2cc(S(=O)(=O)N[C@H](CC(=O)N[C@H](Cc3ccc(CN4[C@H](C)CCC[C@@H]4C)cc3)C(=O)N(C)C(C)C)c3ccc4c(c3)OCO4)ccc2c1 : YES
CN(C)C(=O)C1(N2CCCCC2)CCN(CC[C@@]2(c3ccc(Cl)c(Cl)c3)CN(C(=O)c3ccccc3)CCO2)CC1 : NO
Cc1oc2c(NC(=O)c3c(Cl)cccc3Cl)cccc2c1C(C)(C)O : NO

Now, please, on to the next molecule.
Given `CC[C@H](NC(=O)c1cc(F)ccc1NS(=O)(=O)c1cccc2cccnc12)c1ccccc1` , state the outcome it received in this test. NO
